# credit: ChEMBL document CHEMBL4665630

Target Desc: Phosphoglycerate mutase 1 (Homo sapiens)
Sequence (P18669 whole entry): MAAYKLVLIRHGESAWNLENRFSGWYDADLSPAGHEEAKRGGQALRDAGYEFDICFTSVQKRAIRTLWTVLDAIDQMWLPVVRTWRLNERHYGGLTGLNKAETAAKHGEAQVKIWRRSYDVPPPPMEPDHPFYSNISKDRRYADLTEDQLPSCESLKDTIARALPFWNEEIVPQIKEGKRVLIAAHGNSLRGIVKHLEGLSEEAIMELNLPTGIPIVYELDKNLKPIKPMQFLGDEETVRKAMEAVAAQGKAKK
Assay Text: Inhibition of human recombinant PGAM1 by measuring decrease in OD by enzyme based assay
Endpoint Label: IC50 (nM)

Consider the worked cases shown below.
* CC(C)(C)c1ccc(S(=O)(=O)Nc2cc3c(c(O)c2O)C(=O)c2ccccc2C3=O)cc1 | 490
* CCCCS(=O)(=O)Nc1cc2c(c(O)c1O)C(=O)c1ccccc1C2=O | 2050
* COc1cccc(S(=O)(=O)Nc2cc3c(c(O)c2O)C(=O)c2ccccc2C3=O)c1 | 480
* O=C1c2ccccc2C(=O)c2c1cc(NS(=O)(=O)c1ccc(F)c(C(F)(F)F)c1)c(O)c2O | 630
* COc1ccc(S(=O)(=O)Nc2cc3c(c(O)c2O)C(=O)c2ccccc2C3=O)cc1OC | 2810
* O=C1c2ccccc2C(=O)c2c1cc(NS(=O)(=O)c1cccc3cccnc13)c(O)c2O | 2050

[a] O=C1c2ccccc2C(=O)c2c1cc(NS(=O)(=O)c1ccc(C3CCCCC3)cc1)c(O)c2O
[b] CS(=O)(=O)Nc1cc2c(c(O)c1O)C(=O)c1ccccc1C2=O
Query :: Exercise: compare a and b ; which one has the greater IC50? Lab log: write the label of the selected item as the result.
Result :: b
(b: 5370 nM, a: 97 nM)
